Molecular target: BRD4-BD2 (Homo sapiens (Human), UniProt O60885)
Test: BRD4 AlphaScreen assay, BRD4-BD2
Settings: biotin-labeled tetra-acetylated histone H4 peptide, 75 min, room temperature, read-out: BRD4 BD-2 enzyme IC50
Counter-ions that a name gives are not always drawn.
Hi there, I'd appreciate the recorded IC50 for every entry that follows.

Please look at this compound and report its IC50: CCNC(=O)Nc1cccc(Cn2c(C)cc3c2ccc2nnc(C)n23)c1 [Example 43, Trifluoroacetate Salt]
≤ 0.1 µM

Hello, please tell me recorded IC50 for this one: Cc1nnc2ccc3c(cc(C(=O)N(C)C)n3Cc3ccccc3)n12
0.1 to 1 µM

Give the reported IC50 for this compound. Cc1cc2c(cc(NC3CCCN(C)C3)c3nnc(C)n32)n1Cc1ccccc1 (racemic)
≤ 0.1 µM

Using the record for CC(=O)Nc1cccc(Cn2c(C)cc3c2ccc2nnc(C)n23)c1 [Example 25, Trifluoroacetate Salt] , state its measured IC50.
≤ 0.1 µM

* * *

Target: BRD4-BD1 (Homo sapiens (Human))
Experiment: BRD4 AlphaScreen assay, BRD4-BD1
Conditions: biotin-labeled tetra-acetylated histone H4 peptide, 75 min, room temperature, read-out: BRD4 BD-1 enzyme IC50
Protocol: BRD4-BD1 and BRD4-BD2 assays were conducted in white 384-well polystyrene plate in a final volume of 20 μL for BD1 and 40 μL for BD2. Inhibitors were first serially diluted in DMSO and added to the plate wells before the addition of other reaction components. The final concentration of DMSO in the assay was 1.25% (BD1) and 0.83% (BD2). […] After plate sealing, the plate was incubated in the dark at room temperature for 75 min. before reading on a PHERAstar FS plate reader (BMG Labtech). […]
pIC50: −log10 of the molar value. Structures can show the parent of a compound that is named as a salt.
Endpoint Name: pIC50

Consider the compound Cc1nnc2ccc3c(cc(-c4ccn(CCN(C)C)n4)n3Cc3ccccc3)n12 and give its recorded pIC50.
6.00 to 7.00

Give the reported value of pIC50 for this record: Cc1cc2c(cc(NC(N)=O)c3nnc(C)n32)n1Cc1ccc(F)cc1F
≥ 7.00

Tell us which pIC50 value is on record for CCNc1cc2c(cc(C)n2Cc2ccccc2)n2c(C)nnc12
≥ 7.00

Check the records and state pIC50 for Cc1cc2c(ccc3nnc(C)n32)n1Cc1cccc(CN(C)C)c1
≥ 7.00

Assign pIC50 to the following record: Cc1cc2c(cc(Nc3ccccc3)c3nnc(C)n32)n1Cc1ccccc1
≥ 7.00

Indicate its recorded pIC50; the compound in question is Cc1nnc2ccc3c(cc(C(F)(F)F)n3Cc3ccccc3)n12 [Example 138, Trifluoroacetate Salt]
6.00 to 7.00

Indicate the recorded pIC50 value for this compound: CCNC(=O)CCn1ccc(-c2cc3c(ccc4nnc(C)n43)n2Cc2cccc(Cl)c2)n1 [Example 175, Trifluoroacetate Salt]
≥ 7.00

Provide measured pIC50 value, entry: Cc1nnc2ccc3c(cc(-c4cscn4)n3Cc3ccccc3)n12
≥ 7.00

Tell me measured pIC50 for Cc1cccc(Cn2c(C)cc3c2ccc2nnc(C)n23)c1 please.
≥ 7.00

Return value of pIC50 for input CCOC(=O)N1CC(n2ccc(-c3cc4c(ccc5nnc(C)n54)n3Cc3cccc(Cl)c3)n2)C1 [Example 167, Trifluoroacetate Salt] , no commentary.
≥ 7.00

Determine its reported pIC50: Cc1nnc2ccc3c(cc(C(=O)NC4CN(C)C4)n3Cc3cccc(Cl)c3)n12 [Example 118, bis(trifluoroacetate) Salt]
6.00 to 7.00

Query pIC50 for CCNCc1cccc(Cn2c(C)cc3c2ccc2nnc(C)n23)c1
≥ 7.00

Give the reported value of pIC50 for this record: Cc1cc2c(cc(Nc3cc[nH]n3)c3nnc(C)n32)n1Cc1ccccc1 [Example 200, tris(trifluoroacetate) Salt]
≥ 7.00

Quick one: give measured pIC50 for Cc1nnc2ccc3c(cc(-c4ccn(C5CN(S(=O)(=O)C6CC6)C5)n4)n3Cc3cccc(Cl)c3)n12 [Example 165, Trifluoroacetate Salt]
≥ 7.00

Fill in reported pIC50 for this entry: Cc1nnc2ccc3c(cc(-c4ccn(CCC(=O)N5CCOCC5)n4)n3Cc3cccc(Cl)c3)n12 [Example 169, Trifluoroacetate Salt]
≥ 7.00

Identify the reported pIC50 for the following entry. CNC(=O)CCn1ccc(-c2cc3c(ccc4nnc(C)n43)n2Cc2cccc(Cl)c2)n1 [Example 174, Trifluoroacetate Salt]
≥ 7.00
